Target: T. gondii ME49Luc in IFN-y HeLa, luciferase, 72 h
Experiment: T. gondii growth inhibition with IFN-gamma, dose response, cell-based, ME49Luc, HeLa, luciferase, 72 h (AID 1259418)
Results filed as inconclusive are left out. Active and inactive are the calls of the source.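 How the source made its calls: active means fitted half-maximal concentration of signal decrease at or below twice the sample's top tested concentration; inconclusive means flat curve between -70 and -30 percent, or poor fit; inactive means flat within 30 percent, signal rise, or potency above limit.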
Outcome field: choose from active, inactive

[
  {
    "Compound": "O=C(NCc1ccccc1)C1CC2(CO1)CN(C(=O)c1ccc(F)cc1)c1ccccc12 (stereo not drawn)",
    "Class label": "inactive"
  },
  {
    "Compound": "COc1ccccc1CN1CC[C@@H]2[C@H]1c1cc(-c3cccc(C(=O)N(C)C)c3)ccc1N[C@@H]2CO",
    "Class label": "active"
  }
]

Recorded call for `CCc1ccc(NS(=O)(=O)c2cc3c4c(c2)CCC(=O)N4CCC3)cc1` ? active

====

Target: T. gondii ME49Luc in IFN-y HeLa, luciferase, 72 h
Test: T. gondii growth inhibition with IFN-gamma, dose response, cell-based, ME49Luc, HeLa, luciferase, 72 h (AID 1259418)
Inconclusive results are not listed. Activity calls are given as the source filed them.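 How the source made its calls: active means fitted half-maximal concentration of signal decrease at or below twice the sample's top tested concentration; inconclusive means flat curve between -70 and -30 percent, or poor fit; inactive means flat within 30 percent, signal rise, or potency above limit.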
Outcome field: choose from T = active, F = inactive

Take a look at these entries with their results.
[
  {
    "Molecule": "Cc1cccc(-c2nc(Cn3nnc(-c4nc(-c5cccs5)no4)c3C)c(C)o2)c1",
    "Class label": "F"
  },
  {
    "Molecule": "COc1ccccc1C(=O)N1CCC2(CC1)Nc1ccc(Cl)cc1-n1cccc12",
    "Class label": "T"
  },
  {
    "Molecule": "Cc1ccc(-c2coc(-c3ccc(NS(=O)(=O)c4ccc(CC(C)C)cc4)cc3)n2)c(C)c1",
    "Class label": "F"
  }
]

Recorded call for `COc1ccc(-c2nc(CN(c3ccccc3OC)S(=O)(=O)c3ccc(OC)cc3)c(C)o2)cc1` ? T

Same question for `COc1ccc(N(Cc2nc(-c3ccccc3OC)oc2C)S(=O)(=O)c2cccs2)cc1` please. T

Same question for `CCOc1ccc(-c2nc(CN3CCN(C(=O)Nc4cc(OC)ccc4OC)CC3)c(C)o2)cc1` please. T

Same question for `Cc1ccc(-c2cc(C(F)(F)F)nn2-c2ccc(S(N)(=O)=O)cc2)cc1` please. T

Same question for `CCc1cnc(N2[C@@H](C#N)[C@@H](c3ccc(C#Cc4ccccc4F)cc3)[C@@H]2CO)s1` please. T

Same question for `CN(C)CCCNC(=O)c1cc(-c2cnc(-c3ccccc3)nc2)cn1C` please. T

Same question for `Cc1ccc(-c2coc(-c3ccc(NS(=O)(=O)c4ccc(Br)cc4C)cc3)n2)c(C)c1` please. T

Same question for `CC(C)CNC(=O)c1cc(-c2ccn(CC3CC3)n2)n2ccccc12` please. T

Same question for `CN1C(=O)c2cc(NC(=O)Cc3cccs3)ccc2OC[C@@H]2O[C@H](CC(=O)N[C@H]3CCN(Cc4ccccc4)C3)CC[C@@H]21` please. T

Same question for `COc1ccc(-c2nc(NCCCN3CCN(Cc4ccccc4)CC3)c3ccccc3n2)cc1` please. F

Same question for `CCc1c2c(nc3ccc(OC(=O)N4CCC(N5CCCCC5)CC4)cc13)-c1cc3c(c(=O)n1C2)COC(=O)[C@]3(O)CC` please. T

Same question for `O=C(CCCCCCNC(=O)c1cnc(N(c2ccccc2)c2ccccc2)nc1)NO` please. T

Same question for `Cc1ccc2c(c1C)-n1cccc1C1(CCN(C(=O)c3ccccc3Br)CC1)N2` please. T

Same question for CCc1cc(C2CCCN2C(=O)c2cc(C(F)(F)F)nn2C)on1 (stereo unspecified) please. F

Same question for `CC(C)CNc1nc2c(cc1C(=O)NC(C)C)CCN(c1ccncn1)CC2` please. T

Same question for `Cc1ccc(-c2coc(-c3ccc(NS(=O)(=O)c4ccc(F)c(Cl)c4)cc3)n2)c(C)c1` please. T

====

Molecular target: T. gondii ME49Luc in IFN-y HeLa, luciferase, 72 h
Test: T. gondii growth inhibition with IFN-gamma, dose response, cell-based, ME49Luc, HeLa, luciferase, 72 h (AID 1259418)
Records with an inconclusive call do not appear. Active and inactive are the calls of the source.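 The calls were made as follows: active = fitted half-maximal concentration of signal decrease at or below twice the sample's top tested concentration; inconclusive = flat curve between -70 and -30 percent, or poor fit; inactive = flat within 30 percent, signal rise, or potency above limit.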
Outcome field: choose from T = active, F = inactive

[
  {
    "Molecule": "Cc1cccc(-c2nc(CSc3nc4c(c(=O)[nH]3)CN(Cc3ccccc3)CC4)c(C)o2)c1",
    "System under test": "T. gondii ME49Luc in IFN-y HeLa, luciferase, 72 h",
    "Class label": "F"
  }
]

Recorded call for `Fc1cccc(CSc2nc(NCc3ccc(Cl)cc3)c3ccccc3n2)c1` ? T

Same question for COc1cc([C@@H]2c3cc4c(cc3C(OC3OC5COC(C)OC5C(O)C3O)C3OCC(=O)[C@@H]32)OCO4)cc(OC)c1O (stereo partly drawn) please. T

====

Molecular target: T. gondii ME49Luc in IFN-y HeLa, luciferase, 72 h
Assay: T. gondii growth inhibition with IFN-gamma, dose response, cell-based, ME49Luc, HeLa, luciferase, 72 h (AID 1259418)
Inconclusive results are not listed. The source made the active and inactive calls.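 The calls were made as follows: active = fitted half-maximal concentration of signal decrease at or below twice the sample's top tested concentration; inconclusive = flat curve between -70 and -30 percent, or poor fit; inactive = flat within 30 percent, signal rise, or potency above limit.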
Outcome field: choose from active, inactive

Recorded call for `COCCN(C)C(=O)c1cc(-c2ccn(-c3ccc(OC)cc3)n2)n2ccccc12` ? active

Same question for `Cc1nc(CCNC(=O)[C@H]2CCCN2S(=O)(=O)c2ccccc2)cs1` please. active

Same question for `O=C(CCc1ccccc1)N1CCC2(CC1)Nc1ccc(Cl)cc1-n1cccc12` please. active

Same question for `O=C(Nc1ccc(F)cc1)N1CC(=O)N2[C@@H](CO)[C@@H](c3ccc(-c4cccc(F)c4)cc3)[C@@H]2C1` please. active

Same question for `CC(C)C#Cc1ccc([C@H]2[C@@H](CO)N3C(=O)CN(S(=O)(=O)c4ccccc4)C[C@H]23)cc1` please. active

Same question for `COc1cccc(N(Cc2nc(-c3ccccc3)oc2C)S(=O)(=O)c2ccccc2C)c1` please. active

Same question for `COc1ccccc1-c1ccc([C@@H]2[C@H](CO)N3CCCCN(C(=O)c4cccnc4)C[C@@H]23)cc1` please. active

Same question for `O=C(NCCc1csc(-c2ccccc2)n1)C1CCN(C(=O)c2ccccc2Cl)CC1` please. active

Same question for `COc1ccc(S(=O)(=O)N2CCC(C(=O)NCCc3csc(-c4ccccc4)n3)CC2)cc1` please. inactive

Same question for `COc1ccc(CNC2=NCCNC23CCN(S(=O)(=O)c2ccc(C(C)C)cc2)CC3)cc1` please. active

Same question for `COc1ccccc1C(=O)Nc1ccc(-c2nc(-c3ccc(C)cc3)co2)cc1` please. active

Same question for `Fc1cccc(CSc2nc(NC3CCCCC3)c3ccccc3n2)c1` please. inactive

Same question for `COc1ccc2c(c1)NC1(CCN(C(=O)C3CCCCC3)CC1)c1cccn1-2` please. inactive

Same question for `CCCNC(=O)C[C@H]1CC[C@H]2[C@@H](COC[C@@H](O)CN2C(=O)Nc2ccc(Cl)c(Cl)c2)O1` please. active

Same question for O=C(CCC1N=C2c3ccccc3N=C(SCc3ccc(F)cc3)N2C1=O)NCCc1ccccc1 (configuration not stated) please. active

Same question for `Cc1oc(-c2cccc(Cl)c2)nc1CN1CCN(C(=O)Nc2ccc(F)cc2)CC1` please. active

Same question for `Cc1nc(CCNC(=O)C2CCN(C(=O)c3cccc(Cl)c3)CC2)cs1` please. active

Same question for `N#C[C@@H]1[C@@H](c2ccc(C#Cc3cccnc3)cc2)[C@@H](CO)N1C(=O)NC1CCCCC1` please. active

Same question for `O=C(Nc1ccc(F)cc1)N1CC(=O)N2[C@H](CO)[C@@H](c3ccc(-c4cccc(F)c4)cc3)[C@@H]2C1` please. active

Same question for `COc1ccc(-c2nc(C)c(-c3ccc(SCc4cccc(C(F)(F)F)c4)nn3)s2)cc1` please. inactive

====

Target: T. gondii ME49Luc in IFN-y HeLa, luciferase, 72 h
Assay: T. gondii growth inhibition with IFN-gamma, dose response, cell-based, ME49Luc, HeLa, luciferase, 72 h (AID 1259418)
Inconclusive results are not listed. Activity calls are given as the source filed them.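 How the source made its calls: active means fitted half-maximal concentration of signal decrease at or below twice the sample's top tested concentration; inconclusive means flat curve between -70 and -30 percent, or poor fit; inactive means flat within 30 percent, signal rise, or potency above limit.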
Outcome field: choose from Y for active, N for inactive

Take a look at these entries with their results.
[
  {
    "Structure": "CC(C)(C)c1ccc(S(=O)(=O)N2CCC[C@@H]2C(=O)NCCc2csc(-c3ccccc3)n2)cc1",
    "Class label": "Y"
  },
  {
    "Structure": "CN(C)C(=O)COCc1cncc2c1CCN(c1ccccn1)C2",
    "Class label": "Y"
  },
  {
    "Structure": "N#Cc1ccc(-c2ccc([C@@H]3[C@@H]4CN(C(=O)Nc5ccc6c(c5)OCO6)C[C@H]3N4)cc2)cc1",
    "Class label": "Y"
  }
]

Recorded call for `O=C(c1ccc(-n2nc(C(F)(F)F)c3c2CCCC3)cc1)N1CCC2(CC1)OCCO2` ? Y

Same question for `COc1ccc(S(=O)(=O)N2CCCCN3[C@H](CO)[C@H](c4ccc(C#CCC(C)C)cc4)[C@H]3C2)cc1` please. Y

Same question for `COc1cccc(N(Cc2nc(-c3cccc(C)c3)oc2C)S(=O)(=O)c2ccc(C)cc2)c1` please. Y

Same question for `O=C(NCCc1csc(-c2ccccc2)n1)[C@H]1CCCN1C(=O)Cc1ccc(Cl)cc1` please. N

All figures here come from PubChem BioAssay AID1259418.
